Data provenance is a melting point compilation (Tetko et al.; mined from patent text by program, amines drawn as free bases though some values may be those of a salt).

The entries below are paired with their reported melting point.

CC1(c2ccc(F)cc2)OC(C=Cc2ccsc2)=CC1=O (stereo unspecified) ... 97 to 98 °C
COC(=O)c1[nH]ccc1O ... 100 to 102 °C

QUERY: Given `Cc1nnc([C@H](Nc2ccc(C#N)c(Cl)c2C)[C@H](C)O)o1` , state its recorded melting point.
RESULT: 181 to 183 °C

QUERY: Can you handle `O=C(O)CCC=C(c1ccc(F)cc1)c1ccc(F)cc1` next?
RESULT: 100 °C

QUERY: Record: `COc1ccccc1C(=O)Nc1nc2ccccc2s1`
RESULT: 196 to 197 °C

QUERY: Same again, this time with `CC(=O)c1c(CN2CCOCC2)[nH]c2ccc(Cl)cc12`
RESULT: 120 to 121 °C

QUERY: Param item: `COC(=O)c1ccc(OC)c(I)n1`
RESULT: 175 to 178 °C

QUERY: Now this one: `Cc1noc(NC(=O)N2CCN(c3nccc(-c4cc(F)ccc4F)n3)CC2)c1C`
RESULT: 218 to 219 °C

QUERY: Similarly, `Cc1nnc2n1-c1sc(C#CCCN3C(=O)c4cccc5cccc(c45)C3=O)cc1C(c1ccccc1Cl)=NC2` ?
RESULT: 175 to 179 °C

QUERY: And what about the compound `Cc1c(Cl)nnc2c1CN(C(=O)c1ccccc1F)CC2` ?
RESULT: 151 to 153 °C

QUERY: Param item: `CCOC(=O)COc1cc(-c2ccc(C)cc2)nc2cccc(C(F)(F)F)c12`
RESULT: 134 °C
